Molecular target: RBM42 (Homo sapiens)
Sequence: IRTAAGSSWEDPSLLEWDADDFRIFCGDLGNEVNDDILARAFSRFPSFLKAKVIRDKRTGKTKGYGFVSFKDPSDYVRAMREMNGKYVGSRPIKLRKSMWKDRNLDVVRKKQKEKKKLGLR
Test: protein domain microarray probed with biotinylated miRNA; Domain array: 20 mM Tris-HCl pH 7.4, 200 mM KCl, 0.2 mM EDTA, 0.05% NP40, 2 ug/ul heparin, overnight 4 C. ORF array: PBS pH 7.0 with RNase inhibitor, 100 ng RNA; high values mean tight binding
Conditions: ssRNA
Below: a set of entries, each annotated with reported binding signal.
Express your answer in fluorescence intensity, writing the number without its unit.

Please review the following examples before continuing.
{"sequence.chain": "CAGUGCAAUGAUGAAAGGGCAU", "system.tested": "RBM42 (Homo sapiens)", "binding signal [fluorescence intensity]": 187}
{"sequence.chain": "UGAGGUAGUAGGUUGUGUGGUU", "system.tested": "RBM42 (Homo sapiens)", "binding signal [fluorescence intensity]": 613}

Exercise: Can you share its binding signal? I mean this sequence: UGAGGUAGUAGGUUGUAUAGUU
Solution: 57.7

Exercise: Return reported binding signal; argument: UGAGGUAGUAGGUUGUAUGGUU
Solution: 362

Exercise: Which binding signal value is on record for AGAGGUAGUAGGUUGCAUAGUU ?
Solution: 231

Hey, just so you know, these numbers are from paper PMC11574364.
